- TARGET_DESC: GST-NbGlk1(82-244) (Nicotiana benthamiana)
- Chain: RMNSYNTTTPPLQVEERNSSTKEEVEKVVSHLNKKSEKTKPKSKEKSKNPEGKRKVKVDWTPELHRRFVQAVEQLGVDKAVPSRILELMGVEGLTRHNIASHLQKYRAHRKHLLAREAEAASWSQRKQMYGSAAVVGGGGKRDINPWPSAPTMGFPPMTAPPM
- MEASUREMENT_PROTOCOL: protein-binding microarray; high values mean tight binding
- SETTINGS: protein: recombinant; tags: GST (pTH6838); dsDNA, one strand shown
Whole data set: some 16,000 sequences, median “e-score” near -0.044, cut for the highest 2% near 0.38. Many of the other results were omitted from the sample, so the highest values are more common in it than they were.
RESULT_TYPE: binding signal (E-score)
The reply should be a number in E-score, with the unit left off.

ATCCGGCA :: 0.253
AGGGAAAT :: 0.334
AATTCTCA :: 0.243
AAATCTCG :: 0.463
CAATCTCC :: 0.349

Query: Enter binding signal (test system GST-NbGlk1(82-244) (Nicotiana benthamiana)) for "ATCTCATA"
Result: 0.291

Query: Enter binding signal (test system GST-NbGlk1(82-244) (Nicotiana benthamiana)) for "AAATCAGC"
Result: 0.363

Query: Enter binding signal (test system GST-NbGlk1(82-244) (Nicotiana benthamiana)) for "AAGGATTG"
Result: 0.247

* * *

- TARGET_DESC: GST-NbGlk1(82-244) (Nicotiana benthamiana)
- Chain: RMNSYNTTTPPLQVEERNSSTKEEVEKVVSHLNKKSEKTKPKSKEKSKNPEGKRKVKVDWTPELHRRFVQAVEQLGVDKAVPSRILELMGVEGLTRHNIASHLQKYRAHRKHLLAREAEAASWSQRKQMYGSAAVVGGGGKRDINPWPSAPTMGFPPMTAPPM
- MEASUREMENT_PROTOCOL: protein-binding microarray; high values mean tight binding
- SETTINGS: protein: recombinant; tags: GST (pTH6838); dsDNA, one strand shown
In all, about 16,000 sequences were measured (“e-score”: median about -0.044, highest 2% from about 0.38 on). This is one part of a sample in which the highest values are shown more often than they occur.
Readings of binding signal for the listed sequences
The reply should be a number in E-score, with the unit left off.

Some entries whose results are on file:
ATTCTCCC :: 0.255
ATTCTCCA :: 0.31

Query: Retrieve binding signal measured for "AATCTCCG" and print it.
Result: 0.437

Query: Retrieve binding signal measured for "AATTTCCT" and print it.
Result: 0.255

Query: Retrieve binding signal measured for "AATCTCCT" and print it.
Result: 0.401

Query: Retrieve binding signal measured for "ATTACGTG" and print it.
Result: 0.343

Query: Retrieve binding signal measured for "ATCCAGGA" and print it.
Result: 0.328

* * *

Readings of binding signal for the listed sequences
- TARGET_DESC: GST-NbGlk1(82-244) (Nicotiana benthamiana)
- Chain: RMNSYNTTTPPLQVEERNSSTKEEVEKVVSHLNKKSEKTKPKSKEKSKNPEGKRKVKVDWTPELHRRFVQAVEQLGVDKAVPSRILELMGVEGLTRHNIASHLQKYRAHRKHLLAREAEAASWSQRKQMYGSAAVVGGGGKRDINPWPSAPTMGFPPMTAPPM
- MEASUREMENT_PROTOCOL: protein-binding microarray; high values mean tight binding
- SETTINGS: protein: recombinant; tags: GST (pTH6838); dsDNA, one strand shown
Whole data set: some 16,000 sequences, median “e-score” near -0.044, cut for the highest 2% near 0.38. What follows is part of a selection rich in the highest values, with near analogues and random picks from the rest.
The reply should read as a number followed by its unit.

AATCTAGC :: 0.404 E-score
CAATCGCG :: 0.257 E-score
AATCAAGT :: 0.233 E-score
CAATCCGA :: 0.35 E-score
ACTGAATA :: 0.204 E-score
AAATCCGG :: 0.441 E-score
ATGTAGTA :: 0.223 E-score
AAATCGCA :: 0.379 E-score
ATATTCGC :: 0.321 E-score
AATCGAGC :: 0.207 E-score

Query: Retrieve binding signal measured for "AAATTCGC" and print it.
Result: 0.284 E-score

Query: Retrieve binding signal measured for "ATGTGATA" and print it.
Result: 0.231 E-score

Query: Retrieve binding signal measured for "ATGGTAAT" and print it.
Result: 0.305 E-score

Query: Retrieve binding signal measured for "AAATTCGG" and print it.
Result: 0.227 E-score

Query: Retrieve binding signal measured for "ATATCGCA" and print it.
Result: 0.355 E-score

Query: Retrieve binding signal measured for "ATATCGCC" and print it.
Result: 0.333 E-score

Query: Retrieve binding signal measured for "AATCAAGG" and print it.
Result: 0.258 E-score

Query: Retrieve binding signal measured for "ATATTCGG" and print it.
Result: 0.228 E-score

* * *

- TARGET_DESC: GST-NbGlk1(82-244) (Nicotiana benthamiana)
- Chain: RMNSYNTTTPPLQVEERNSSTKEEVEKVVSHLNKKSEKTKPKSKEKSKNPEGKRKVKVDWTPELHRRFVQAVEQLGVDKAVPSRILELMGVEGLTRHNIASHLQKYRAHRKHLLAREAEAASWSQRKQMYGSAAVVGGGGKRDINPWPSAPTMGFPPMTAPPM
- MEASUREMENT_PROTOCOL: protein-binding microarray; high values mean tight binding
- SETTINGS: protein: recombinant; tags: GST (pTH6838); dsDNA, one strand shown
The full ranking holds about 16,000 sequences; the median of “e-score” is about -0.044, and the highest 2% start at about 0.38. Shown is part of a subset that was picked to be rich in the highest values.
Could you please mark Y for values of binding signal below 0.3 E-score and N for values at or above it?

ATAGATAT :: N

Turning now to a further record.
Query: Determine if "AAAGATAT" shows binding signal strictly lower than 0.3 E-score.
Result: N

* * *

- TARGET_DESC: GST-NbGlk1(82-244) (Nicotiana benthamiana)
- Chain: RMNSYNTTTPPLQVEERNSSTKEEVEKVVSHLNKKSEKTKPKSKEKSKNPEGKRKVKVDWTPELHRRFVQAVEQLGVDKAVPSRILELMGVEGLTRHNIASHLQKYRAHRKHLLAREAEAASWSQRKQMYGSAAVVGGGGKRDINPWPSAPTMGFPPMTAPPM
- MEASUREMENT_PROTOCOL: protein-binding microarray; high values mean tight binding
- SETTINGS: protein: recombinant; tags: GST (pTH6838); dsDNA, one strand shown
The full ranking holds about 16,000 sequences; the median of “e-score” is about -0.044, and the highest 2% start at about 0.38. The entries come from a sample that favours the highest values as a whole.
Readings of binding signal for the listed sequences
The reply should be a number in E-score, with the unit left off.

ATTTTTAG :: 0.235
AATCATAT :: 0.28
AAATATAA :: 0.208
ATATGCAT :: 0.219
ATTTGTAG :: 0.21
ATCCGGTA :: 0.286

Query: Retrieve binding signal measured for "ATCCTCTA" and print it.
Result: 0.342

Query: Retrieve binding signal measured for "AATCGTGC" and print it.
Result: 0.299

Query: Retrieve binding signal measured for "AATTTATA" and print it.
Result: 0.264

Query: Retrieve binding signal measured for "ATTTCGCA" and print it.
Result: 0.279

Query: Retrieve binding signal measured for "AAATTATA" and print it.
Result: 0.256

Query: Retrieve binding signal measured for "AGATTCCA" and print it.
Result: 0.433

Query: Retrieve binding signal measured for "ATTACACA" and print it.
Result: 0.31

Query: Retrieve binding signal measured for "AAAGTATC" and print it.
Result: 0.243

Query: Retrieve binding signal measured for "AGATTCAT" and print it.
Result: 0.24

Query: Retrieve binding signal measured for "AATCACTG" and print it.
Result: 0.269

Query: Retrieve binding signal measured for "AAAATATT" and print it.
Result: 0.316

Query: Retrieve binding signal measured for "AAAATCTT" and print it.
Result: 0.447

Query: Retrieve binding signal measured for "AAAATTTT" and print it.
Result: 0.271

Query: Retrieve binding signal measured for "AGATCCCT" and print it.
Result: 0.298

* * *

- TARGET_DESC: GST-NbGlk1(82-244) (Nicotiana benthamiana)
- Chain: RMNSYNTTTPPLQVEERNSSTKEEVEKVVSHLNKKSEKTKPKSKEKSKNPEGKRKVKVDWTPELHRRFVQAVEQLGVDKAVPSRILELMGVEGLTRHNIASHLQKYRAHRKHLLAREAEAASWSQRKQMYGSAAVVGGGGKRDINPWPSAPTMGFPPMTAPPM
- MEASUREMENT_PROTOCOL: protein-binding microarray; NbGlk1 is a Golden2-like transcription factor of Nicotiana benthamiana; high values mean tight binding
- SETTINGS: protein: recombinant; tags: GST (pTH6838); dsDNA, one strand shown
The full ranking holds about 16,000 sequences; the median of “e-score” is about -0.044, and the highest 2% start at about 0.38. What follows is part of a selection rich in the highest values, with near analogues and random picks from the rest.
RESULT_TYPE: binding signal (E-score)
The reply should be a number in E-score, with the unit left off.

AATCAGAG :: 0.229
AATCTGTG :: 0.411
AATCTGAG :: 0.415
AATCAGTG :: 0.266

Query: Retrieve binding signal measured for "ATCTGAGG" and print it.
Result: 0.265

Query: Retrieve binding signal measured for "AAATCTAT" and print it.
Result: 0.419
